The origin of these recorded values is paper PMC11756168.

test-description: TAC blood level monitoring (Siemens Dimension EXL200, ACMIA method) in the patient
conditions-used: human, po, 1 mg
readout-name: concentration at 12 h (ng/mL)
The response must be a number in ng/mL with no trailing unit.

What does the data say about its concentration at 12 h? Entry: `C=CC[C@@H]1/C=C(\C)C[C@H](C)C[C@H](OC)[C@H]2O[C@@](O)(C(=O)C(=O)N3CCCC[C@H]3C(=O)O[C@H](/C(C)=C/[C@@H]3CC[C@@H](O)[C@H](OC)C3)[C@H](C)[C@@H](O)CC1=O)[C@H](C)C[C@@H]2OC`
3.9

* * *

test-description: TAC blood level monitoring (Siemens Dimension EXL200, ACMIA method) in the patient
conditions-used: human, oral
readout-name: concentration at 11 h

Requested field: concentration at 11 h. Item: `C=CC[C@@H]1/C=C(\C)C[C@H](C)C[C@H](OC)[C@H]2O[C@@](O)(C(=O)C(=O)N3CCCC[C@H]3C(=O)O[C@H](/C(C)=C/[C@@H]3CC[C@@H](O)[C@H](OC)C3)[C@H](C)[C@@H](O)CC1=O)[C@H](C)C[C@@H]2OC`
5.1 ng/mL

* * *

test-description: One-compartment calculation of TAC elimination half-life from consecutive blood levels
Assay type: in vivo
conditions-used: human, po, 1.5 mg, day 0 to 2, under ensitrelvir, read-out: calculated t1/2 of TAC (converted)
Method: Assuming a one-compartment model, the elimination rate constant (ke), elimination half-life (t1/2), and maximum plasma concentration (Cmax) of TAC were calculated as follows: ke=lnC1/C2/T2-T1 t1/2=0.693/ke Cmax=Ctrough+F*Dose/Vd where C1 and C2 represent the TAC blood levels at times T1 and T2 in the same dosing interval (T2 > T1), respectively. Ctrough represents TAC blood levels immediately before administration and dose represents the TAC dose. […]
readout-name: half-life (h)
Just the number in h, nothing appended.

Tell me the measured half-life of `C=CC[C@@H]1/C=C(\C)C[C@H](C)C[C@H](OC)[C@H]2O[C@@](O)(C(=O)C(=O)N3CCCC[C@H]3C(=O)O[C@H](/C(C)=C/[C@@H]3CC[C@@H](O)[C@H](OC)C3)[C@H](C)[C@@H](O)CC1=O)[C@H](C)C[C@@H]2OC` , please.
71.9

* * *

test-description: TAC blood level monitoring (Siemens Dimension EXL200, ACMIA method) in the patient
conditions-used: human, oral, 1 mg
readout-name: concentration at 20 h (ng/mL)
The response must be a number in ng/mL with no trailing unit.

For the compound shown here, `C=CC[C@@H]1/C=C(\C)C[C@H](C)C[C@H](OC)[C@H]2O[C@@](O)(C(=O)C(=O)N3CCCC[C@H]3C(=O)O[C@H](/C(C)=C/[C@@H]3CC[C@@H](O)[C@H](OC)C3)[C@H](C)[C@@H](O)CC1=O)[C@H](C)C[C@@H]2OC` , give the reported concentration at 20 h.
3.7

* * *

test-description: One-compartment simulation of TAC levels with various F values
Design: species or system human
conditions-used: human, blood, oral, Day5, 7:00 to Day8, 7:00; hypothesized to continue from days 2-5 until day 8; read-out: Estimated TAC half-life (converted)
readout-name: half-life

Data request, read-out half-life, for `C=CC[C@@H]1/C=C(\C)C[C@H](C)C[C@H](OC)[C@H]2O[C@@](O)(C(=O)C(=O)N3CCCC[C@H]3C(=O)O[C@H](/C(C)=C/[C@@H]3CC[C@@H](O)[C@H](OC)C3)[C@H](C)[C@@H](O)CC1=O)[C@H](C)C[C@@H]2OC`
115 h

* * *

test-description: One-compartment calculation of TAC elimination half-life from consecutive blood levels
Type: in vivo
conditions-used: human, po, 1.5 mg, day -1 to 0, before ensitrelvir, read-out: calculated t1/2 of TAC (converted)
readout-name: half-life (h)
Record the value in h, omitting the unit from your answer.

Give its half-life value. Item: `C=CC[C@@H]1/C=C(\C)C[C@H](C)C[C@H](OC)[C@H]2O[C@@](O)(C(=O)C(=O)N3CCCC[C@H]3C(=O)O[C@H](/C(C)=C/[C@@H]3CC[C@@H](O)[C@H](OC)C3)[C@H](C)[C@@H](O)CC1=O)[C@H](C)C[C@@H]2OC`
33.7

* * *

test-description: TAC blood level monitoring (Siemens Dimension EXL200, ACMIA method) in the patient
conditions-used: human, oral, 1.5 mg
readout-name: concentration at 155.5 h (ng/mL)
Please state the figure in ng/mL; there is no need to write the unit.

For the compound `C=CC[C@@H]1/C=C(\C)C[C@H](C)C[C@H](OC)[C@H]2O[C@@](O)(C(=O)C(=O)N3CCCC[C@H]3C(=O)O[C@H](/C(C)=C/[C@@H]3CC[C@@H](O)[C@H](OC)C3)[C@H](C)[C@@H](O)CC1=O)[C@H](C)C[C@@H]2OC` , what concentration at 155.5 h is on record?
1.1

* * *

test-description: TAC blood level monitoring (Siemens Dimension EXL200, ACMIA method) in the patient
conditions-used: human, oral, 1 mg
readout-name: concentration at 12 h (ng/mL)
Output spec: scalar in ng/mL, unitless text.

Recorded concentration at 12 h for `C=CC[C@@H]1/C=C(\C)C[C@H](C)C[C@H](OC)[C@H]2O[C@@](O)(C(=O)C(=O)N3CCCC[C@H]3C(=O)O[C@H](/C(C)=C/[C@@H]3CC[C@@H](O)[C@H](OC)C3)[C@H](C)[C@@H](O)CC1=O)[C@H](C)C[C@@H]2OC` , please?
6.5

* * *

test-description: TAC blood level monitoring (Siemens Dimension EXL200, ACMIA method) in the patient
conditions-used: human, po, 0.2 mg
readout-name: concentration at 36 h (ng/mL)
Record the value in ng/mL, omitting the unit from your answer.

What does the data say about its concentration at 36 h? Entry: `C=CC[C@@H]1/C=C(\C)C[C@H](C)C[C@H](OC)[C@H]2O[C@@](O)(C(=O)C(=O)N3CCCC[C@H]3C(=O)O[C@H](/C(C)=C/[C@@H]3CC[C@@H](O)[C@H](OC)C3)[C@H](C)[C@@H](O)CC1=O)[C@H](C)C[C@@H]2OC`
1

* * *

test-description: TAC blood level monitoring (Siemens Dimension EXL200, ACMIA method) in the patient
conditions-used: human, oral, 2 mg
readout-name: concentration at 5 days

May I ask what concentration at 5 days has been recorded for `C=CC[C@@H]1/C=C(\C)C[C@H](C)C[C@H](OC)[C@H]2O[C@@](O)(C(=O)C(=O)N3CCCC[C@H]3C(=O)O[C@H](/C(C)=C/[C@@H]3CC[C@@H](O)[C@H](OC)C3)[C@H](C)[C@@H](O)CC1=O)[C@H](C)C[C@@H]2OC` ?
6.6 ng/mL

* * *

test-description: Pharmacokinetics of TAC (literature)
Format: in vivo
conditions-used: human, blood; assumed, 1 L/kg at body weight 42 kg; read-out: volume of distribution (Vd) of TAC
readout-name: Vd (L)
Field format: number, assumed L, no unit text.

Entry `C=CC[C@@H]1/C=C(\C)C[C@H](C)C[C@H](OC)[C@H]2O[C@@](O)(C(=O)C(=O)N3CCCC[C@H]3C(=O)O[C@H](/C(C)=C/[C@@H]3CC[C@@H](O)[C@H](OC)C3)[C@H](C)[C@@H](O)CC1=O)[C@H](C)C[C@@H]2OC` : reported Vd = ?
42
